Data provenance is ChEMBL document CHEMBL1131060.

system.under.test: Human immunodeficiency virus type 1 integrase (Human immunodeficiency virus 1)
Sequence (Q7ZJM1 whole entry): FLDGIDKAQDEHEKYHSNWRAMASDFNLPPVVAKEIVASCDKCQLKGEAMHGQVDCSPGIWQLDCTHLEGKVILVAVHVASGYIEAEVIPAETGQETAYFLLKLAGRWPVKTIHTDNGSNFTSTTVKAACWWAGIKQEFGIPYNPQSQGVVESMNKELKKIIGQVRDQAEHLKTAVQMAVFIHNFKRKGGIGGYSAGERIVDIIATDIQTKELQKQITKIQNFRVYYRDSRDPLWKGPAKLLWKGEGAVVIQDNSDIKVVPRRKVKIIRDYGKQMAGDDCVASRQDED
assay.comment: Inhibition of HIV-1 integrase enzyme at 3`- processing stage of DNA integration
pIC50: −log10 of the molar value.
recorded.endpoint: pIC50

As a guide, the following entries are already answered.
CC1=NN(C(=O)c2ccc(Cl)cc2)C(=O)/C1=C/c1ccccc1O ... < 3.53
CC1=NN(C(=O)c2ccc(Cl)cc2)C(=O)/C1=C/c1cccc([N+](=O)[O-])c1 ... < 3.57

Query compound follows.
For record O=C(NNC(=O)c1ccccc1F)c1ccc2ccccc2c1 the listed pIC50 is < 4.00

====

Let's look at some compounds and their measured IC50.
system.under.test: UniProt Q7ZJM1
assay.comment: Inhibition of HIV-1 integrase enzyme at 3`- processing stage of DNA integration

As a guide, the following entries are already answered.
O=C(NN1C(=O)C(Cl)C1c1ccccc1O)c1ccccc1O (stereo not given) ... 300 µM
COc1cc(/C=C2/C(=O)N(C(=O)c3ccccc3O)N=C2C)cc(OC)c1OC ... 2 µM
CCOc1ccccc1C(=O)NNC(=O)c1ccccc1OCC ... > 100 µM
CC1=NN(C(=O)c2ccccc2O)C(=O)/C1=C/c1ccco1 ... 2.7 µM
O=C(NNC(=O)c1ccc(Cl)c(Cl)c1)c1ccccc1 ... > 100 µM
O=C(O)c1ccccc1C(=O)NNC(=O)c1ccccc1C(=O)O ... > 100 µM
COc1cc(C(=O)NNC(=O)c2ccc(Cl)c(Cl)c2)cc(OC)c1OC ... > 100 µM
O=C(NNC(=O)c1ccccc1Br)c1ccccc1Br ... > 100 µM

For record COc1cc(C2C(Cl)C(=O)N2NC(=O)c2ccccc2O)ccc1O (stereo not given) the listed IC50 is > 275 µM

For record O=C(NNC(=O)c1cccc2ccccc12)c1ccccc1Br the listed IC50 is > 100 µM

For record O=C(NNC(=O)c1ccc2ccccc2c1)c1ccc(Cl)c(Cl)c1 the listed IC50 is > 100 µM

For record O=C(NNC(=O)c1ccccc1F)c1ccccc1F the listed IC50 is > 100 µM

For record COc1cc(C(=O)NNC(=O)c2ccc(Cl)cc2)cc(OC)c1OC the listed IC50 is > 100 µM

For record O=C(NNC(=O)c1cccc2ccccc12)c1ccccc1F the listed IC50 is > 100 µM

For record COc1cc(/C=C2/C(=O)N(C(=O)c3ccccc3O)N=C2C)ccc1O the listed IC50 is 0.8 µM

For record COc1ccc(/C=C2/C(=O)N(C(=O)c3ccccc3O)N=C2C)cc1 the listed IC50 is 0.9 µM

For record O=C(NNC(=O)c1ccc(Br)cc1)c1ccc(Br)cc1 the listed IC50 is > 100 µM

For record O=C(NNC(=O)c1ccc(Cl)c(Cl)c1)c1ccc(Cl)c(Cl)c1 the listed IC50 is > 100 µM

For record O=C(NNC(=O)c1ccc(Cl)cc1Cl)c1ccc2ccccc2c1 the listed IC50 is > 100 µM

For record Nc1ccccc1C(=O)NNC(=O)c1ccccc1N the listed IC50 is > 100 µM
